test: Aqueous solubility of organic solvent, EPA830.7840 flask shaking method; assay type: physicochemical; conditions: in 100 g of water; 1 atm and 23°C
EXPERIMENTAL_READOUT: amount of the organic solvent dissolved in 100 g of water (g)

| MOLECULE | OBS_VALUE |
| --- | --- |
| CCCCOC(C)COC(C)COC(C)CO (stereo not drawn) | 3 |
| OCCOc1ccccc1 | 2.3 |

(a) CCCOC(C)COC(C)CO (stereo not drawn)
(b) OCc1ccccc1
Prompt: Compare reported amount of the organic solvent dissolved in 100 g of water values for a and b . Which is lower? State the label of the item chosen.
Completion: b
(b: 4 g, a: 18 g)

###

test: Aqueous solubility of organic solvent, EPA830.7840 flask shaking method; assay type: physicochemical; conditions: 1 atm and 23°C
EXPERIMENTAL_READOUT: Aqueous solubility

Guide cases for Aqueous solubility, answers given:
| COMPOUND | Aqueous solubility |
| --- | --- |
| CCCCOC(C)COC(C)COC(C)CO (stereo not drawn) [Tripropylene glycol monobutyl ether] | 3 g/100 g of water |
| CCCCOCCOCCO [Diethylene glycol monobutyl ether] | miscible |
| OCc1ccccc1 [Benzyl alcohol] | 4 g/100 g of water |
| CCCOC(C)COC(C)CO (stereo not drawn) [Dipropylene glycol monopropyl ether] | 18 g/100 g of water |
| COCC(C)O (stereo not drawn) [Propylene glycol monomethyl ether] | miscible |

Kindly consider the entry below.
Prompt: Looking for the measured Aqueous solubility of COC(C)COC(C)CO (stereo not drawn) [Dipropylene glycol monomethyl ether] , can you help?
Completion: miscible
